System: Fibroblast
Experiment: Multiplex assay against human fibroblast
Format: toxicity, cell-based
Conditions: 12 h, 1 µM, compound concentration 1 uM, replicate 2
The entries below come with measured Population Fragmented Nuclei (%) values attached.
The answer should read as a number with its unit following.

COMPOUND	OBSERVED VALUE
CC(C)(O)C(=O)N1CCN(c2ccc(C(F)(F)F)c(C3=C(c4c[nH]c5ccccc45)C(=O)NC3=O)c2)CC1	30%
Cc1sc2c(c1C)C(c1ccc(Cl)cc1)=N[C@H](CC(=O)OC(C)(C)C)c1nnc(C)n1-2	26%
OCCCNc1cc(-c2ccnc(Nc3cccc(Cl)c3)n2)ccn1	21%

response.value for CN1C[C@H](C(=O)N[C@]2(C)O[C@@]3(O)[C@@H]4CCCN4C(=O)[C@H](Cc4ccccc4)N3C2=O)C[C@@H]2c3cccc4[nH]cc(c34)C[C@H]21.CS(=O)(=O)O [DIHYDROERGOTAMINE MESYLATE] (field: Population Fragmented Nuclei (%)) = 32%
